- TEST_METHOD_NOTES: Selectivity ratio of IC50 for MMP12 (unknown origin) to IC50 for ADAMTS7 (unknown origin)
REPORTED_ENDPOINT: Ratio IC50

These solved cases illustrate the format of a correct answer.
Cn1cc(Cn2ncc(C(=O)NC[C@@]3(C4CC4)NC(=O)NC3=O)n2)cn1    29.4
Cc1nc(C2(CNC(=O)c3ccccc3-c3ccc(C(F)(F)F)cc3)NC(=O)NC2=O)c(C)s1 (centres undefined)    36
Cn1nccc1[C@]1(CNC(=O)c2ccc(F)c(F)c2-c2ccc(C(F)(F)F)cc2)NC(=O)NC1=O    896

(1) O=C1NC(=O)[C@](CNC(=O)c2cnn(Cc3nccs3)n2)(C2CC2)N1
(2) O=C1NC(=O)C(CNC(=O)c2ccccc2-c2ccc(C(F)(F)F)cc2)(c2ccnn2CC(F)(F)F)N1 (centres undefined)
(3) O=C1NC(=O)[C@](CNC(=O)c2cnn(-c3ccccc3F)n2)(C2CC2)N1
Data request: Sort the 3 molecules by Ratio IC50; largest first, smallest last. Respond with an ordered listing of the labels, as requested.
Data returned: 2, 1, 3

(A) Cc1nc(Cn2ncc(C(=O)NC[C@@]3(C4CC4)NC(=O)NC3=O)n2)cs1
(B) CCn1nccc1C1(CNC(=O)c2ccccc2-c2ccc(C(F)(F)F)cc2)NC(=O)NC1=O (centres undefined)
Data request: // max by Ratio IC50 over [ A , B ] Response format: the label of the selected entry.
Data returned: B
(B: 96, A: 33.5)

====

- TESTED_ON: A disintegrin and metalloproteinase with thrombospondin motifs 7 (Mus musculus, UniProt Q68SA9)
- Sequence (Q68SA9 whole entry): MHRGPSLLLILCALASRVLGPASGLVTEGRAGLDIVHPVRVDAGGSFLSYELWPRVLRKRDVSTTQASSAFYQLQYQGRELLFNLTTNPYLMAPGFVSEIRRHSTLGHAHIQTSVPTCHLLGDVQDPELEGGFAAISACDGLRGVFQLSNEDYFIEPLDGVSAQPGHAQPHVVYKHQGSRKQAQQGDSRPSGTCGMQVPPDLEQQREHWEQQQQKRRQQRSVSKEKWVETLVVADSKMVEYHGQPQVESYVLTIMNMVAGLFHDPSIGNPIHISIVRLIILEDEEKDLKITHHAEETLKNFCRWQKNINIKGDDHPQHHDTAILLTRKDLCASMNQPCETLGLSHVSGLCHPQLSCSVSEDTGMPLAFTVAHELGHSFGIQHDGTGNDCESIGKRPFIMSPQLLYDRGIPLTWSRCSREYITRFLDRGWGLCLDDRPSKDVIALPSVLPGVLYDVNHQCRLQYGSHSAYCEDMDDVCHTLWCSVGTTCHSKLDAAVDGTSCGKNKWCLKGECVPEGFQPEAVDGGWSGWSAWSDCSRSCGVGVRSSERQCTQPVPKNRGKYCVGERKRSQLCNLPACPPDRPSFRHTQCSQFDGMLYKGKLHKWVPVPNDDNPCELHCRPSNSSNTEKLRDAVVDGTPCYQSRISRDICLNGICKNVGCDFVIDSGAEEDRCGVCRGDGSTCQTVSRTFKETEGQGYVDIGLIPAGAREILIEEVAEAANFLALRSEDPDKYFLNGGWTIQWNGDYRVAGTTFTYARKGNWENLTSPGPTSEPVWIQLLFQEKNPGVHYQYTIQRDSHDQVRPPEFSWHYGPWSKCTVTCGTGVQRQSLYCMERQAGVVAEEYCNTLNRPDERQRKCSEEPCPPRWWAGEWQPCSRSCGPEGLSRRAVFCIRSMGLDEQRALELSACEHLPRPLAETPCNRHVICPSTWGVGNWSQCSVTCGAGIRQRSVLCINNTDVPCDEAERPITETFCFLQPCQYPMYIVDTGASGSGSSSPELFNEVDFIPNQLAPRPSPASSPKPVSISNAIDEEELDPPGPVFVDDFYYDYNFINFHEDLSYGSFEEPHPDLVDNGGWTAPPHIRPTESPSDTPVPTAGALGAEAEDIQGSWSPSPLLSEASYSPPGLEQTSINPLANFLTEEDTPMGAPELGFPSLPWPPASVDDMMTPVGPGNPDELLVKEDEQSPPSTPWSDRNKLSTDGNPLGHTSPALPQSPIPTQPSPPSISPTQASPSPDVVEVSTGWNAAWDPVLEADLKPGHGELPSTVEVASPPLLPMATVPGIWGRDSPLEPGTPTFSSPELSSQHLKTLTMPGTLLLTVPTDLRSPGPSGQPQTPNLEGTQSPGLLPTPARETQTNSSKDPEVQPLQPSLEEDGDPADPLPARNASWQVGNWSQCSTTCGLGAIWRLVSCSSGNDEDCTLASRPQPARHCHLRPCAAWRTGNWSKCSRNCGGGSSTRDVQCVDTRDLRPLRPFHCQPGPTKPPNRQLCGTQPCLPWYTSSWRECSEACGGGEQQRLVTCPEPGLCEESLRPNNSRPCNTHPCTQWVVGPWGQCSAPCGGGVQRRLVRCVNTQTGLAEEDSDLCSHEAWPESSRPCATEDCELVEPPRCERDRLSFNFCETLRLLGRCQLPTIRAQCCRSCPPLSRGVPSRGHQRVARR
- TEST_METHOD_NOTES: Inhibition of recombinant mouse ADAMTS7 using HiLyteFluor-488 DELSSMVLELRGLRT-K(QXL520)-E-NH2 as substrate incubated for 120 mins by FRET assay
REPORTED_ENDPOINT: IC50 (nM)
Answer in nM, number only, no unit symbol.

Data request: Reported IC50 for Cn1nccc1[C@]1(CNC(=O)c2ccc(F)c(F)c2-c2ccc(C(F)(F)F)cc2)NC(=O)NC1=O : what is it?
Data returned: 8

====

- TEST_METHOD_NOTES: Selectivity ratio of IC50 for MMP15 (unknown origin) to IC50 for ADAMTS7 (unknown origin)
REPORTED_ENDPOINT: Ratio IC50

These solved cases illustrate the format of a correct answer.
Cc1ccc(-c2ccccc2C(=O)NC[C@@]2(C3CC3)NC(=O)NC2=O)cc1    872
Cn1nccc1[C@]1(CNC(=O)c2ccc(F)c(F)c2-c2ccc(C(F)(F)F)cc2)NC(=O)NC1=O    13100
O=C1NC(=O)[C@](CNC(=O)c2cnn(-c3ccc(F)cc3)n2)(C2CC2)N1    41700

(1) Cn1nc(-c2ccccc2)cc1C1(CNC(=O)c2ccc(F)c(F)c2-c2ccc(C(F)(F)F)cc2)NC(=O)NC1=O (stereo not given)
(2) Cn1nccc1[C@]1(CNC(=O)c2ccccc2-c2ccc(C(F)(F)F)cc2)NC(=O)NC1=O
Data request: // max by Ratio IC50 over [ 1 , 2 ] Response format: the label of the selected entry.
Data returned: 1
(1: 41700, 2: 6390)

====

- TESTED_ON: A disintegrin and metalloproteinase with thrombospondin motifs 7 (Rattus norvegicus)
- Sequence (Q1EHB3 whole entry): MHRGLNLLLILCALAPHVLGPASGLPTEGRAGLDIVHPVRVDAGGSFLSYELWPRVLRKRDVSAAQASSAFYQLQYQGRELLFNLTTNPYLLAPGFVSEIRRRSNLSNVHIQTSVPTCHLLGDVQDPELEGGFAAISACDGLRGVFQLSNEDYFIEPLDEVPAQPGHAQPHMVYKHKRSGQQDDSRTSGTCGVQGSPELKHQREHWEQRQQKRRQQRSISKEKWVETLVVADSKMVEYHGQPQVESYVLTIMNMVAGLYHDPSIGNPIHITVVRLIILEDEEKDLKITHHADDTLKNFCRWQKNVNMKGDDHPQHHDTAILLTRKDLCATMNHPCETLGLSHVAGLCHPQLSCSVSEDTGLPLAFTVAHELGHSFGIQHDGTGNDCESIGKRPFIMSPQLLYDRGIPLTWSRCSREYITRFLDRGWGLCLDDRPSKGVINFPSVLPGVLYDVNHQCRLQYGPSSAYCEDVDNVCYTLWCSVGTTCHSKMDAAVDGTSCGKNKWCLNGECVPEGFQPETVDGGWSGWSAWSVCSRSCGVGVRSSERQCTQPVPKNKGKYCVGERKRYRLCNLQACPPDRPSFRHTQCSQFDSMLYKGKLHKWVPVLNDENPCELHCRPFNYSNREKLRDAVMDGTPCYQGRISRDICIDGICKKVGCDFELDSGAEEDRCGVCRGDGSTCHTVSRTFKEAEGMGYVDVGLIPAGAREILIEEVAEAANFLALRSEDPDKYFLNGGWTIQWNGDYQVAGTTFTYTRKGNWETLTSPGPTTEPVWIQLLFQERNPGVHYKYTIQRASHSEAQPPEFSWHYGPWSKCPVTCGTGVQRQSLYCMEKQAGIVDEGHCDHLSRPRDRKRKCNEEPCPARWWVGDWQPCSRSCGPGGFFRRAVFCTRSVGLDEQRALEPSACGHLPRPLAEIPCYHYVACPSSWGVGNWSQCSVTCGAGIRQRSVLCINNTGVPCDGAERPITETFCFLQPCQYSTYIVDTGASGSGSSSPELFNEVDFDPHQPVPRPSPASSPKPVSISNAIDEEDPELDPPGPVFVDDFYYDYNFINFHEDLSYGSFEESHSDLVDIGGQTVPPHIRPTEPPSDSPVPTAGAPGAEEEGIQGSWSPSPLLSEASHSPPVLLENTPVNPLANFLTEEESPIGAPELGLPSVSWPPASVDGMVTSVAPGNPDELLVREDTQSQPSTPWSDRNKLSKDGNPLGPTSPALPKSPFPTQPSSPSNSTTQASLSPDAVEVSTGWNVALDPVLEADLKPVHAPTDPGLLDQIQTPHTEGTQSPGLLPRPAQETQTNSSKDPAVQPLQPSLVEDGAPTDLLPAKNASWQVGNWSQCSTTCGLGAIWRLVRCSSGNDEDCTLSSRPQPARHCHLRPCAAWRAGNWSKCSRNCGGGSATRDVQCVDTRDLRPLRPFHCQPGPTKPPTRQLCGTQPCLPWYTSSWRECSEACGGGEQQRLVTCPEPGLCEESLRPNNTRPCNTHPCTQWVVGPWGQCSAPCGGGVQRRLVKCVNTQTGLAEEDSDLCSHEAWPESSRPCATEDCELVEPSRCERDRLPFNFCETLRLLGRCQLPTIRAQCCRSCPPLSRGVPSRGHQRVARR
- TEST_METHOD_NOTES: Inhibition of recombinant rat ADAMTS7 using HiLyteFluor-488 DELSSMVLELRGLRT-K(QXL520)-E-NH2 as substrate incubated for 120 mins by FRET assay
REPORTED_ENDPOINT: pIC50
Answer as the number alone; pIC50 is minus log10 of concentration in mol/L.

Data request: Reported pIC50 for Cn1nccc1[C@]1(CNC(=O)c2ccc(F)c(F)c2-c2ccc(C(F)(F)F)cc2)NC(=O)NC1=O : what is it?
Data returned: 7.57

====

- TESTED_ON: A disintegrin and metalloproteinase with thrombospondin motifs 7 (Homo sapiens)
- Sequence (Q9UKP4 whole entry): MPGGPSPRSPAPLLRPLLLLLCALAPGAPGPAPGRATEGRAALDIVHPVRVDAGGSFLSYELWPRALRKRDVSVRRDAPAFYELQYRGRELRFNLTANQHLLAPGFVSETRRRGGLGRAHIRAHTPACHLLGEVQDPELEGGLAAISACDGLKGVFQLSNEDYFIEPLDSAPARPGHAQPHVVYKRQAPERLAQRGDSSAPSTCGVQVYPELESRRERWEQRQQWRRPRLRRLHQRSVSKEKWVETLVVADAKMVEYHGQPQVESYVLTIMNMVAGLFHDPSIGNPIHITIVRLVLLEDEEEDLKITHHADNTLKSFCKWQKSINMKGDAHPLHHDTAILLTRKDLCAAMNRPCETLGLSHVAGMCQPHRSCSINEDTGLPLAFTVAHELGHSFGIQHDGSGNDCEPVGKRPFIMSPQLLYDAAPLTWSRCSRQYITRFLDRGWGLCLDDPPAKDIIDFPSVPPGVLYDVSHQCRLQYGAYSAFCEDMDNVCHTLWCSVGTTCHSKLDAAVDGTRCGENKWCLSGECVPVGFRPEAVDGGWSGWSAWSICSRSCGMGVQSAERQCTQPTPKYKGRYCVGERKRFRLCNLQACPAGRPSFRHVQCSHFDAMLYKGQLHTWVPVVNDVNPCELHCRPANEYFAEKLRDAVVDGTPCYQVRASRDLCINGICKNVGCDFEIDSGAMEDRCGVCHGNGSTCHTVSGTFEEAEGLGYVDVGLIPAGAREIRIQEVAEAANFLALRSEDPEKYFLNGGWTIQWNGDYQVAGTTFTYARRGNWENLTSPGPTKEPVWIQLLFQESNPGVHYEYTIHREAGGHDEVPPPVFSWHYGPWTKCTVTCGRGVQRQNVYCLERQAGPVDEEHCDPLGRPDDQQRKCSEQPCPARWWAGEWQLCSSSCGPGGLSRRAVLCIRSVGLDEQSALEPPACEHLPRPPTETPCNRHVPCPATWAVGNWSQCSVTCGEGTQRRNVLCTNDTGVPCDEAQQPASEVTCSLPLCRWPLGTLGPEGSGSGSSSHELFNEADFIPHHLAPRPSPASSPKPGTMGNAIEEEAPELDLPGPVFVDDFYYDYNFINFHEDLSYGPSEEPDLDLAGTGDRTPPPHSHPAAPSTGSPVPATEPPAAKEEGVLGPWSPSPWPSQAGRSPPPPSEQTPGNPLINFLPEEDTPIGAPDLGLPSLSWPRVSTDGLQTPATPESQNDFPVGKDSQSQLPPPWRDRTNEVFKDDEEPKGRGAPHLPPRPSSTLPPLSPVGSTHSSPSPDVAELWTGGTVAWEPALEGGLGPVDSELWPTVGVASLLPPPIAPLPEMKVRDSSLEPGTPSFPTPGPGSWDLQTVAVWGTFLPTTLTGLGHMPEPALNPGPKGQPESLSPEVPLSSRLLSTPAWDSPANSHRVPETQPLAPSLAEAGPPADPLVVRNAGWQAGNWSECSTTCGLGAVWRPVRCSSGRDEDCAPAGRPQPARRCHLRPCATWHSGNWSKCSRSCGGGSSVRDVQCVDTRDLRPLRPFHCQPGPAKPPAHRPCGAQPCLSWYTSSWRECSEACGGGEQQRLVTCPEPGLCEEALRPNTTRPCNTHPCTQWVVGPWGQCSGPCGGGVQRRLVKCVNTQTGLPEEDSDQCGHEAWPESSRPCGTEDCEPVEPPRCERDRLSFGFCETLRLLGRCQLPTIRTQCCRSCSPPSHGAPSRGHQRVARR
- TEST_METHOD_NOTES: Inhibition of recombinant ADAMTS7 (unknown origin) using HiLyteFluor-488 DELSSMVLELRGLRT-K(QXL520)-E-NH2 as substrate incubated for 120 mins by FRET assay
REPORTED_ENDPOINT: IC50 (µM)

These solved cases illustrate the format of a correct answer.
Cc1sc(-c2ccccc2)nc1C1(CNC(=O)c2ccc(F)c(F)c2-c2ccc(C(F)(F)F)cc2)NC(=O)NC1=O (configuration not stated)    0.047
O=C1NC(=O)[C@](CNC(=O)c2cnn(-c3ccc(F)cn3)n2)(C2CC2)N1    0.115
Cc1sc(-c2cccnc2)nc1C1(CNC(=O)c2ccc(F)c(F)c2-c2ccc(C(F)(F)F)cc2)NC(=O)NC1=O (configuration not stated)    0.009
Cc1scnc1C1(CNC(=O)c2ccccc2-c2ccc(C(F)(F)F)cc2)NC(=O)NC1=O (configuration not stated)    0.006

(a) Cn1nccc1[C@]1(CNC(=O)c2c(F)cccc2-c2ccc(C(F)(F)F)cc2)NC(=O)NC1=O
(b) Cn1nccc1[C@]1(CNC(=O)c2ccc(Cl)c(F)c2-c2ccc(C(F)(F)F)cc2)NC(=O)NC1=O
Data request: // max by IC50 over [ a , b ] Response format: the label of the selected entry.
Data returned: a
(a: 0.079 µM, b: 0.003 µM)

(I) O=C1NC(=O)[C@](CNC(=O)c2cnn(Cc3nccs3)n2)(C2CC2)N1
(II) Cn1nccc1[C@]1(CNC(=O)c2cc(F)ccc2-c2ccc(C(F)(F)F)cc2)NC(=O)NC1=O
(III) Cc1ccc(-c2cccc(C(=O)NC[C@@]3(C4CC4)NC(=O)NC3=O)c2)cc1
Data request: With regard to IC50, arrange the entries in ascending order, please. Respond with an ordered listing of the labels, as requested.
Data returned: II, I, III
(II: 0.019 µM, I: 0.91 µM, III: 2.3 µM)

(A) Cc1nc(Cn2ncc(C(=O)NC[C@@]3(C4CC4)NC(=O)NC3=O)n2)cs1
(B) Cn1ccnc1C1(CNC(=O)c2ccccc2-c2ccc(C(F)(F)F)cc2)NC(=O)NC1=O (single isomer, unassigned)
Data request: Problem: Given the entries A and B , determine which has the lower reported IC50. Response format: the label of the selected entry.
Data returned: B

(1) Cn1cc(Cn2ncc(C(=O)NC[C@@]3(C4CC4)NC(=O)NC3=O)n2)cn1
(2) Cn1nccc1[C@]1(CNC(=O)c2ccc(C(F)(F)F)c(F)c2-c2ccc(C(F)(F)F)cc2)NC(=O)NC1=O
(3) COc1cccc(C(=O)NC[C@@]2(c3ccnn3C)NC(=O)NC2=O)c1-c1ccc(C(F)(F)F)cc1
(4) Cc1nc(C2(CNC(=O)c3ccccc3-c3ccc(C(F)(F)F)cc3)NC(=O)NC2=O)c(C)s1 (configuration not stated)
Data request: Sort the 4 compounds by IC50; largest first, smallest last. Respond with an ordered listing of the labels, as requested.
Data returned: 1, 3, 4, 2

====

- TEST_METHOD_NOTES: Selectivity ratio of IC50 for MMP12 (unknown origin) to IC50 for ADAMTS7 (unknown origin)
REPORTED_ENDPOINT: Ratio IC50

These solved cases illustrate the format of a correct answer.
O=C1NC(=O)[C@](CNC(=O)c2cnn(-c3ccc(F)cn3)n2)(C2CC2)N1    0.6
Cc1c(C2(CNC(=O)c3ccccc3-c3ccc(C(F)(F)F)cc3)NC(=O)NC2=O)cnn1C (stereo unspecified)    18
O=C1NC(=O)[C@](CNC(=O)c2cnn(-c3ccccc3)c2)(C2CC2)N1    0.03

(A) O=C1NC(=O)C(CNC(=O)c2ccccc2-c2ccc(C(F)(F)F)cc2)(c2ncsc2C(F)(F)F)N1 (stereo unspecified)
(B) O=C1NC(=O)[C@](CNC(=O)c2cnn(-c3ccc(Cl)cc3)n2)(C2CC2)N1
(C) Cc1ccc(-n2ncc(C(=O)NC[C@@]3(C4CC4)NC(=O)NC3=O)n2)cc1
Data request: Sort the 3 molecules by Ratio IC50; largest first, smallest last. Respond with an ordered listing of the labels, as requested.
Data returned: A, B, C

(a) O=C1NC(=O)[C@](CNC(=O)c2cnn(-c3cnsc3)n2)(C2CC2)N1
(b) O=C1NC(=O)[C@](CNC(=O)c2cnn(-c3cccc(Cl)c3)n2)(C2CC2)N1
Data request: // max by Ratio IC50 over [ a , b ] Response format: the label of the selected entry.
Data returned: a

====

- TEST_METHOD_NOTES: Selectivity ratio of IC50 for MMP12 (unknown origin) to IC50 for ADAMTS7 (unknown origin)
REPORTED_ENDPOINT: Ratio IC50

O=C1NC(=O)[C@](CNC(=O)c2cnn(Cc3ccc(Cl)cc3)c2)(C2CC2)N1    7.4
O=C1NC(=O)C(CNC(=O)c2ccccc2-c2ccc(C(F)(F)F)cc2)(c2cscn2)N1 (stereo not drawn)    67

(1) O=C1NC(=O)[C@](CNC(=O)c2cnn(-c3cccc(F)c3)n2)(C2CC2)N1
(2) Cn1ccnc1C1(CNC(=O)c2ccccc2-c2ccc(C(F)(F)F)cc2)NC(=O)NC1=O (single isomer, unassigned)
Data request: Problem: Given the entries 1 and 2 , determine which has the lower reported Ratio IC50. Response format: the label of the selected entry.
Data returned: 1
(1: 1.1, 2: 450)
